B1: NR2F2 (parent)
chain: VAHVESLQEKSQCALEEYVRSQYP

# Variants of: B1
# measurement protocol: protein stability index of a GFP-peptide fusion (GPS, HEK-293T) (PSI 1-6); higher = more stable;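 further: lentivirally expressed fusions sorted by FACS into six bins by GFP to DsRed ratio, PSI derived from sequencing read proportions per bin multiplied by bin number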
# recorded conditions: c terminus: a fixed tail appended
quantity kind: protein stability index

{"variant": "S21T", "observed result": 3.95}
{"variant": "S11G", "observed result": 4.07}
{"variant": "P24V", "observed result": 3.06}
{"variant": "C13G", "observed result": 4}
{"variant": "P24R", "observed result": 4.01}
{"variant": "Y18L", "observed result": 3.01}
{"variant": "Y18K", "observed result": 3.94}
{"variant": "L7K", "observed result": 3.98}
{"variant": "L7R", "observed result": 3.89}
{"variant": "K10W", "observed result": 2.96}
{"variant": "S21N", "observed result": 3.92}
{"variant": "L15I", "observed result": 3.89}
{"variant": "S21P", "observed result": 4.04}
{"variant": "Y23T", "observed result": 4.01}
{"variant": "L7M", "observed result": 3.95}
{"variant": "A14T", "observed result": 3.92}
{"variant": "S6I", "observed result": 3.07}
{"variant": "V19Q", "observed result": 4.03}
{"variant": "E5H", "observed result": 3.02}
